Biological target: DHODH (Homo sapiens (Human), UniProt Q02127)
Sequence (Q02127 whole entry): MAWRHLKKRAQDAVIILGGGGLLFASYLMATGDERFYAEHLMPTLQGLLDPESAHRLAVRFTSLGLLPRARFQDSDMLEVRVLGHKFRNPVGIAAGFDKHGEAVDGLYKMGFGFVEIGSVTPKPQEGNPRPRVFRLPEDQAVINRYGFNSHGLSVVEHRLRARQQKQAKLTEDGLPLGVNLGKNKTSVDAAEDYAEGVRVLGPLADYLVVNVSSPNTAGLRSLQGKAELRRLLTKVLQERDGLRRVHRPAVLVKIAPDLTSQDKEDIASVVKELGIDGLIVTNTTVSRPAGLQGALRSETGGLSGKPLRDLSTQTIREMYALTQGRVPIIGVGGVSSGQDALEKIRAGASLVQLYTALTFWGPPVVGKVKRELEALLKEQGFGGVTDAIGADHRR
Assay: DHODH activity assay (coupled enzyme assay, DCIP reduction, absorbance at 610 nm)
Format: biochemical
Conditions: compound at 10 uM; read-out: inh @ 10 uM hDHODH (%)
Description: The DHODH activity assay is a coupled enzyme assay in which oxidation of DHO and subsequent reduction of ubiquinone are stoichiometrically equivalent to the reduction of DCIP ([…]). The reduction of DCIP is accompanied by a loss of absorbance at 610 nm. […] 5 μL of Dimethyl sulfoxide or a compound of formula I in DMSO solution was added to the wells of a 96 well plate. Compounds of formula I were measured at 10 μM. […] Percent Inhibition is Calculated as Follows […]
Label scheme for inhibition at 10 µM: lower than 70% is -1, 70% and above is 1.

In [3]: df
Out[3]:
                                   compound  class
0  O=C(O)c1cccc2[nH]c(-c3ccc(-c4ccc(O)cc4)cc3)nc12 [I177]     -1
1  Cc1cc(C(=O)O)c2nc(-c3cc(-c4ccccc4)cs3)[nH]c2c1 [I49]     -1
2  Cc1cc(C(=O)NC2CC2)c2[nH]c(-c3c(F)c(F)c(-c4ccccc4)c(F)c3F)nc2c1 [I163]      1
3  Cc1cc(C(=O)O)c2nc(-c3ccc(-c4ccsc4)cc3)[nH]c2c1 [I23]      1
4  O=C(O)c1cccc2[nH]c(-c3ccc(-c4ccc(Oc5ccccn5)cc4)cc3)nc12 [I172]     -1

Item Cc1cc(C(=O)O)c2[nH]c(-c3ccc(-c4ccccc4F)cc3)nc2c1 [I26] with inhibition at 10 µM of 70% or above?
1

How about Cc1cc(-c2nnc(O)o2)c2nc(-c3ccc(-c4ccccc4)cc3)[nH]c2c1 [I165] ?
-1

How about FC(F)(F)c1cccc2[nH]c(-c3ccc(-c4ccccc4)cc3)nc12 [I43] ?
-1

How about O=C(O)c1cccc2nc(-c3ccc(-c4c(F)cccc4F)cc3)[nH]c12 [I65] ?
1

How about O=C(O)c1cccc2[nH]c(-c3ccc(S(=O)(=O)c4ccccc4)cc3)nc12 [I54] ?
-1

How about O=C(O)c1cccc2nc(-c3c(F)c(F)c(-c4ccccc4OCc4ccccc4)c(F)c3F)[nH]c12 [I101] ?
1

---

biological target: DHODH (Homo sapiens (Human)); assay: DHODH activity assay (coupled enzyme assay, DCIP reduction, absorbance at 610 nm); assay type: biochemical; details: compound at 10 uM; read-out: inh @ 10 uM hDHODH (%)
Measurement label: inhibition at 10 µM
Answer with the figure and its unit, nothing else.

Use the examples below as a reference point.
In [3]: df
Out[3]:
                                   molecule  reported
0  O=C(O)c1cccc2[nH]c(-c3ccc(-c4ccccc4)cc3)nc12 [I1]     93.9%
1  Cc1cc(C(=O)O)c2nc(-c3ccc(-c4ccc(O)cc4)cc3)[nH]c2c1 [I117]      102%
2  Cc1cc(C(=O)O)c2nc(-c3c(F)c(F)c(-c4ccc(NC(=O)C5CCCN5)cc4)c(F)c3F)[nH]c2c1 (centres unmarked) [I85]      104%
3  Cc1cc(C(=O)O)c2nc(-c3c(F)c(F)c(-c4cccnc4)c(F)c3F)[nH]c2c1 [I141]     92.5%

What value of inhibition at 10 µM has been reported for the following molecule? O=C(O)c1cccc2[nH]c(-c3ccc(-c4cccc(F)c4F)cc3)nc12 [I60]
80.4%
